Target: HNF4α (Homo sapiens, UniProt P41235)
Sequence (P41235 whole entry): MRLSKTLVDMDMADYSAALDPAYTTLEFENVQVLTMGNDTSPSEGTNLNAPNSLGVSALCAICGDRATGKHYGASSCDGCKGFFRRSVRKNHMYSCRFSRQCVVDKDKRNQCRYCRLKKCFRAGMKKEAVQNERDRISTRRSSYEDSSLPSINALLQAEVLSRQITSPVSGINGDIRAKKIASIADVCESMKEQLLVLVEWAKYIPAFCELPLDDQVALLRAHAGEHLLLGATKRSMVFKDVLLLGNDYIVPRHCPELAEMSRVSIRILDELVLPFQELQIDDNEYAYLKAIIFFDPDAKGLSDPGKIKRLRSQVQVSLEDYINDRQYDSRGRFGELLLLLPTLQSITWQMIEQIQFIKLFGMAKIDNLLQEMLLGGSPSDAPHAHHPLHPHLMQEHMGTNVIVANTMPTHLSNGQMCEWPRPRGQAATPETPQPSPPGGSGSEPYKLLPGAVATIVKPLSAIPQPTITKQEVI
Experiment: DARTS assay in HepG2 cells
Type: binding
Details: HepG2, 20μM, 24hr, subtilisin
OBSERVABLE: effect on HNF4α protease sensitivity (DARTS)

CCCCCS(=O)(=O)NC(=O)c1ccc2nc(C)n(Cc3ccc(Cl)cc3Cl)c2c1 [FK614, reference compound]    no effect
Cc1nc2ccccc2n1Cc1cc([N+](=O)[O-])ccc1O    no effect

---

System: endogenous insulin promoter
Test: Endogenous insulin mRNA
Type: cell-based, human
Details: T6PNE, 1μM tamoxifen, 48 hours
OBSERVABLE: effect of fatty acid on insulin gene expression (quantitative RT-PCR)

CCCC(=O)O    did not have an effect
CC(=O)O    did not have an effect
